target: Histone deacetylase 1 (Homo sapiens, UniProt Q13547); experiment: Inhibition of Flag-tagged HDAC1 (unknown origin) expressed in 293T cells using ZMAL as substrate incubated for 180 mins by fluorescence method; parameters: species or system HEK293T
Sequence (Q13547 whole entry): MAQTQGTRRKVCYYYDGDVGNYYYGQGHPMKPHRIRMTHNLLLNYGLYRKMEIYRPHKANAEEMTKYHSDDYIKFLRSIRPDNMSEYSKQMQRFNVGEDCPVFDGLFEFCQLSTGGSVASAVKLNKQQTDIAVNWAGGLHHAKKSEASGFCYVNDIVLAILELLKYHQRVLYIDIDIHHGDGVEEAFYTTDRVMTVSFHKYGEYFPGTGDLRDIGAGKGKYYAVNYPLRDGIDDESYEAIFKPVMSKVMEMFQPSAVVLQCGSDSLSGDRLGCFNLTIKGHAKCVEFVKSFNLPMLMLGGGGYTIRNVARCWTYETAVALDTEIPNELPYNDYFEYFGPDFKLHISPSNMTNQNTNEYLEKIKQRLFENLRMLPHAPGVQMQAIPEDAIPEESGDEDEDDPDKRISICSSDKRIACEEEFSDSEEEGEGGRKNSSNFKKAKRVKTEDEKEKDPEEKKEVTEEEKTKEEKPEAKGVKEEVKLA
pIC50: −log10 of the molar value.

smiles_code	pIC50
COC(=O)[C@H](Cc1ccccn1)NC(=O)CCCCCCC(=O)NO	4.00

====

biological target: Histone deacetylase 1 (Homo sapiens); experiment: Inhibition of human full-length recombinant HDAC1 using p53 fluorogenic peptide ([…] residues) (RHKK(Ac)) as substrate by fluorescence method
pIC50: −log10 of the molar value.

smiles_code	pIC50
O=C(/C=C/c1cccn(CCCc2ccc3ccccc3c2)c1=O)NO	7.71

From: ChEMBL document CHEMBL4673207
